test system: EKVX; experiment: NCI tumour cell line growth inhibition, 48 h
Activity calls are given as the source filed them. No stated cut-off is given here; in the data, active = GI50 up to about 1.1 µM and inactive = higher.
ENDPOINT: GI50

| COMPOUND | EXPERIMENTAL TARGET | ENDPOINT | VALUE MEASURED |
| --- | --- | --- | --- |
| O=C(Nc1ccc(Cl)cc1Cl)C1C(=O)OC2(CCCCC2)OC1=O | EKVX | GI50 | 11.9 µM (inactive) |
| Cc1sccc1C(=S)Nc1ccc(Cl)c(/C=N/OC(C)(C)C)c1 | EKVX | GI50 | 15.8 µM (inactive) |
| CCc1ccccc1NC(=O)C(=O)C(C#N)c1c(Cl)cccc1Cl (centres undefined) | EKVX | GI50 | > 100 µM (inactive) |
| O=C(Nc1ccc2oc(=O)c(C(=O)O)cc2c1)Oc1ccccc1 | EKVX | GI50 | > 100 µM (inactive) |
| C[C@H](CCC(=O)NCC(=O)O)[C@H]1CC[C@H]2[C@@H]3[C@H](O)C[C@@H]4C[C@H](O)CC[C@]4(C)[C@H]3CC[C@]12C | EKVX | GI50 | > 100 µM (inactive) |
| CCn1c(=O)c2c3ccc(OC)cc3[nH]c2c2ccc(OC)cc21 | EKVX | GI50 | 57.8 µM (inactive) |
| Cc1[nH]c2ccccc2c1C1Cc2ccccc2N1C(=O)/C=C\C(=O)O (centres undefined) | EKVX | GI50 | 44.8 µM (inactive) |
| C[C@]12CC[C@@H]3c4cc(OCC(F)(F)F)c(O)cc4/C(=N/O)C[C@H]3[C@@H]1CC[C@@H]2O | EKVX | GI50 | 0.23 µM (active) |
| O=C1CC(c2c(-c3ccccc3)[nH]c3ccccc23)C(=O)N1c1ccccc1 (centres undefined) | EKVX | GI50 | > 100 µM (inactive) |

----------
test system: OVCAR-4; test: NCI tumour cell line growth inhibition, 48 h
The source made the active and inactive calls. No stated cut-off is given here; in the data, active = GI50 up to about 1.1 µM and inactive = higher.
ENDPOINT: GI50

| COMPOUND | VALUE MEASURED |
| --- | --- |
| O=C1CC(c2c(-c3ccccc3)[nH]c3ccccc23)C(=O)N1c1ccccc1 (stereo not given) | 68.9 µM (inactive) |
| COc1ccccc1NC(=O)C(=O)C(C#N)CC(C)(C)C=O (stereo not given) | > 100 µM (inactive) |
| CN(/N=C/c1cccs1)c1ccc([N+](=O)[O-])cc1[N+](=O)[O-] | > 100 µM (inactive) |
| COc1c(-c2nc3ccc(N4CCN(C)CC4)cc3[nH]2)cc(OC)c2[nH]c(COC(C)=O)nc12 | 29.8 µM (inactive) |
| CCCCCC(=O)Nc1[nH]cnc1C(N)=O | > 100 µM (inactive) |

----------
test system: UACC-62; test: NCI tumour cell line growth inhibition, 48 h
The source made the active and inactive calls. Cut-off read from the data, not from the text of the source: active = GI50 up to about 1.1 µM and inactive = higher.
Outcome codes: Yes (active), No (inactive)

| COMPOUND | CLASS NAME |
| --- | --- |
| COC(=O)c1cccc2c3ccccc3c3ccccc3c12 | No |
| CO/N=C(/C)c1cccc(Nc2nc3ccccc3c3[nH]c4ccccc4c23)c1 | No |
| O=c1c2cc([N+](=O)[O-])cnc2sn1-c1ccc([N+](=O)[O-])cc1 | No |
| CCOC(=O)C1=C(C)NC(=S)NC1c1cccc(O)c1 (stereo unspecified) | No |
| C=C1CC(Cn2ccc(=O)[nH]c2=O)(c2ccc(-c3ccccc3)cc2)OC1=O (stereo unspecified) | Yes |
| C[n+]1cc2cc(O)c(O)cc2c2ccc3cc(O)c(O)cc3c21.c1ccncc1 | No |
| NC(=S)N/N=C(\Cc1nc2ccc(Cl)cc2nc1O)C(=O)Nc1ccc(Cl)cc1 | No |
| COC(=O)NN1C(=O)C(=P(c2ccccc2)(c2ccccc2)c2ccccc2)C(C(=O)OC)=C1C | No |
| O=NC1C(Cl)C2CC1C1C(Br)C(Br)CC21 (stereo unspecified) | No |
| O=C(O)CN1CCN2CCCCCN(CC1)CCN(CC(=O)O)CC2 | No |
| O=[N+]([O-])c1ccc(S[C@@H]2[C@H]3c4c(-c5ccccc5)[nH]c(-c5ccccc5)c4[C@@H]2C[C@H]3Cl)cc1 | No |
| N#CCc1c(-c2ccccc2)n(S(=O)(=O)c2ccccc2)c2ccccc12 | No |
| COC(=O)C1CCC(=S)N1C(C)=O (stereo unspecified) | No |
| COC(=O)c1ccccc1C1CN=NC12Cc1cc3c(cc1C2=O)CCC3 (stereo unspecified) | No |
| COC(=O)[C@@H]1[C@H](O)[C@H](C)[C@H](O)[C@@](C)(O)/C=C\C=C(\C)C(=O)Nc2c(C)c(OC(C)=O)c3c(c2O)C(=O)C(C)=C2OCOC(=C23)/C(C)=C/[C@@](C)(O)[C@H](O)[C@@H](C)[C@H]1OC(C)=O | No |
| COc1ccccc1NC(=O)C(=O)C(C#N)CC(C)(C)C=O (stereo unspecified) | No |
| O=[N+]([O-])c1ccc(S(=O)(=O)N=Ic2ccccc2)cc1 | No |
| COC(=O)C1=C(C)N(NC(=O)c2ccccc2)C(C)(O)C12CCOC2=O (stereo unspecified) | No |
| Cc1cc(C)c(-n2[nH]c(=O)n(C)c2=O)c(C)c1 | No |
| CC(C)=CCC/C(C)=C/CC/C(C)=C/CC/C(C=O)=C/CC/C(C)=C\CC/C(C)=C/CC/C(C)=C/CC/C(C)=C/CC1=CC(=O)C=CC1=O | No |
| CC(C)(C)c1ccc(-c2nnc(SCc3ccc(Cl)cc3)n2-c2cccc(C(F)(F)F)c2)cc1 | No |

----------
system: OVCAR-3; assay: NCI tumour cell line growth inhibition, 48 h
Calls of active or inactive are those of the source. Cut-off read from the data, not from the text of the source: active = GI50 up to about 1.1 µM and inactive = higher.
Classes used: yes for active, no for inactive

| COMPOUND | EXPERIMENTAL TARGET | CLASS NAME |
| --- | --- | --- |
| C[N+](C)([O-])C12CC3CC(CC(C3)C1)C2 | OVCAR-3 | no |
| CC1(C)CN=C(Nc2ccc(F)c(Cl)c2)S1 | OVCAR-3 | no |
| O=[N+]([O-])c1ccc2occ3c2c1CCC3 | OVCAR-3 | no |
| COc1cc(/C=C/c2cccnc2)cc(OC)c1OC | OVCAR-3 | no |
| NC(=S)N/N=C(\Cc1nc2ccc(Cl)cc2nc1O)C(=O)Nc1ccc(Cl)cc1 | OVCAR-3 | no |
| CC1(C)CC[C@]2(C)[C@@H](O)C[C@]3(C)C(=CC[C@@H]4[C@@]5(C)CC[C@H](O)C(C)(C)[C@@H]5CC[C@]43C)[C@@H]2C1 | OVCAR-3 | no |
| NC(=O)NCc1c(C(N)=O)ncn1Cc1ccccc1 | OVCAR-3 | no |
| O=C(O)C(Cc1c[nH]c2ccccc12)C(=O)NO (stereo not given) | OVCAR-3 | no |
| CN(Cc1nc2c(N)nc(N)nc2nc1N)c1ccc(C(=O)NC(CCC(=O)O)C(=O)O)cc1 (stereo not given) | OVCAR-3 | no |
| OC(c1ccc(-c2ccccc2)cc1)C(F)(F)c1nc2ccccc2o1 (stereo not given) | OVCAR-3 | no |
| CC(=O)O[C@H]1C(=O)[C@@]2(C)[C@H]([C@H](OC(=O)c3ccccc3)[C@]3(O)C[C@H](OC(=O)[C@H](O)[C@@H](NC(=O)c4ccc(N(C)C)cc4)c4ccccc4)C(C)=C1C3(C)C)[C@]1(OC(C)=O)CO[C@@H]1C[C@@H]2O | OVCAR-3 | yes |
| COC(=O)C1CCC(=S)N1C(C)=O (stereo not given) | OVCAR-3 | no |
| N=C(N)N/N=C/c1cc(Cl)cc(Cl)c1O | OVCAR-3 | no |
| O=C1C(=O)N(C(=O)c2ccc(Cl)c(Cl)c2)c2ccccc21 | OVCAR-3 | no |
| CC(=O)OC1C/C(C)=C/CCC(C)/C=C/C2(C)CCC(C(C)(C)O)C12 (stereo not given) | OVCAR-3 | no |
| CC(C)(C)N(Cc1ccoc1)C(=O)/C=C\[S+]([O-])c1ccccc1 (stereo not given) | OVCAR-3 | no |
| COc1ccc(C(=O)C(c2ccc(OC)cc2)C2(O)C(=O)Nc3ccccc32)cc1 (stereo not given) | OVCAR-3 | no |
| CCOC(=O)C(=O)Nc1c(CC)cccc1C(C)CC (stereo not given) | OVCAR-3 | no |
| Cc1cc(Br)cc(C)c1NC(=O)C(=O)CC(=O)c1sc(-n2nc(-c3ccccc3)cc2-c2ccccc2)nc1C | OVCAR-3 | no |
| CC(=O)O[C@@H]1[C@H](OC2CCCCC2(c2ccccc2)c2ccccc2)O[N+]([O-])=CC12CCCCC2 (stereo not given in full) | OVCAR-3 | no |
